These data points were gathered from patent EP4613859A1.

biological target: human MAL (human) (UniProt P58753); assay: P3 phage display panning on plate-immobilised MAL, after round 4, NGS
Measured Metric: NGS count (count)
Unit count implied. Number only.

[ask] In one line, give reported NGS count of the entry "SLRKNLVSNLIEEFKR" .
[reply] 3570

[ask] Respond only with NGS count recorded for "LKWGDPYFWSKLRYAM"
[reply] 5130

[ask] Specify NGS count for "DWFLSKLSQHILKREK" and stop.
[reply] 4580

[ask] Supply measured NGS count of "DHHLDLPRGKAIKPEILG" in your reply.
[reply] 2280

[ask] Tell me NGS count reported for "KMQKWKDALYEAANLS"
[reply] 4430

[ask] Identify measured NGS count associated with "VEPTQVRKQSGAVENA"
[reply] 2280

[ask] # return recorded NGS count for input "NELVHVWSSKANSLVG"
[reply] 1840
